METHOD_SUMMARY: AUC in Sprague-Dawley rat at 1 mg/kg, iv by LC/MS/MS analysis
Assay type: ADME, organism-based
Set-up: dose 1 mg/kg, route intravenous
CONDITION_INFO: plasma
Collected AUC values appear next to each entry.
Lab book: enter the figure in ng·h/mL, no units written.

Field: example entries. Status: answers known.
chem_smiles=Cc1ccc(CN2CCOCC2)cc1NC(=O)c1ccc(Nc2nc(-c3ccc(OC(F)(F)F)cc3)c3cccn3n2)cc1 value_measured=2230
chem_smiles=Cc1cccc(C)c1NC(=O)c1ccc(Nc2nc(-c3ccc(OC(F)(F)F)cc3)c3cccn3n2)cc1 value_measured=1430
chem_smiles=Cc1ccc(CN2CCOCC2)cc1NC(=O)c1ccc(Nc2nc(-c3ccc(OC(F)(F)F)cc3)c3cccn3n2)cn1 value_measured=1940
chem_smiles=CS(=O)(=O)c1ccc(C(=O)Nc2ccc(Cl)c(-c3ccccn3)c2)c(Cl)c1 value_measured=2460
chem_smiles=Cc1ccc(CN2CCOCC2)cc1NC(=O)c1ccc(Nc2nc(-c3cnn(C)c3)c3cccn3n2)cc1 value_measured=791

Next up:
QUERY: Can you look up the measured AUC of Cc1ccc(CN2CCOCC2)cc1NC(=O)c1ccc(Nc2nc(-c3ccccn3)c3cccn3n2)cc1 for me?
RESULT: 764
